// provenance: the Immune Epitope Database (IEDB)

Kindly state log10(Kd) for each of the entries shown.
Biological target: HLA-B*44:03
Assay: IEDB peptide-MHC binding, purified MHC/competitive/radioactivity; filed as Kd, often an IC50 or EC50 that approximates it; bounds were set here for any values at or beyond the usual limits of such assays
Details: source organism: Dengue virus 2 Jamaica/1409/1983
Short version: log10 scale, Kd, nM.

// assay HLA-B*44:03, entry `HEWMTTEDM` , log10(Kd) value = 3.18

For each entry beneath this line, provide reported log10(Kd).
1. SEIPNLDII
2. IESALNDTW
3. EEEEAGVLW
4. SEMIIPKNF
5. SRNSTHEMYW

Reply text:
1. 1.78
2. 1.83
3. 2.21
4. 1.11
5. 3.14

---

Biological target: HLA-B*15:42
Experiment: IEDB peptide-MHC binding, purified MHC/competitive/fluorescence; filed as Kd, often an IC50 or EC50 that approximates it; bounds were set here for any values at or beyond the usual limits of such assays
Conditions: source organism: Escherichia coli F11
Measured endpoint: Kd

The recorded Kd for `GLIPQWVTL` is ≥ 5 µM

---

Target: HLA-A*26:03
Test: IEDB peptide-MHC binding, purified MHC/competitive/fluorescence; filed as Kd, often an IC50 or EC50 that approximates it; bounds were set here for any values at or beyond the usual limits of such assays
Settings: source organism: Homo sapiens
Measured endpoint: Kd

The recorded Kd for `TYSPALNKM` is ≥ 20 µM

---

Target: HLA-A*29:02
Experiment: IEDB peptide-MHC binding, purified MHC/competitive/radioactivity; filed as Kd, often an IC50 or EC50 that approximates it; bounds were set here for any values at or beyond the usual limits of such assays
Settings: source organism: Mammarenavirus brazilense
Measured endpoint: Kd (nM)
One number for each entry, in nM.

// assay HLA-A*29:02, entry `EYGFTRRFKF` , Kd value = 133

---

Target: HLA-A*03:01
Assay: IEDB peptide-MHC binding, purified MHC/competitive/fluorescence; filed as Kd, often an IC50 or EC50 that approximates it; bounds were set here for any values at or beyond the usual limits of such assays
Conditions: source organism: Bacillus cereus G9241
Measured endpoint: Kd
State the result as a value with its unit after it.

The recorded Kd for `RVDEIILFK` is 0.156 µM

---

Molecular target: HLA-A*24:02
Assay: IEDB peptide-MHC binding, purified MHC/competitive/radioactivity; filed as Kd, often an IC50 or EC50 that approximates it; bounds were set here for any values at or beyond the usual limits of such assays
Conditions: source organism: Dengue virus 2 Jamaica/1409/1983
Measured endpoint: Kd (nM)
Give bare numbers, in nM.

Observe how each entry below is paired with its result.
The recorded Kd for `LDPIPYDPKF` is 2420

The recorded Kd for `LYAVATTFV` is 66.4

The recorded Kd for `AWLVHRQWF` is 164

The recorded Kd for `IWYMWLGARF` is 6.14

Alright, here's another sequence for you.
The recorded Kd for `WYAQIQPHWI` is 49.3

---

Biological target: HLA-A*03:01
Test: IEDB peptide-MHC binding, purified MHC/competitive/radioactivity; filed as Kd, often an IC50 or EC50 that approximates it; bounds were set here for any values at or beyond the usual limits of such assays
Conditions: source organism: Dengue virus 1 Singapore/S275/1990
Measured endpoint: Kd (nM)
Answers are plain numbers, in nM.

The recorded Kd for `RIMQRGLLGR` is 5.56
